Attribution: PubChem BioAssay (NCI)

Tested on: T-47D breast
measurement-protocol: NCI tumour cell line growth inhibition, 48 h
Please respond with reported TGI for every item in the list.

Please fill in: TGI reported for `CCC(=O)N1NC(=O)C(CC)(CC)C1=O` = > 100 µM

For `CC(=O)OC[C@@H]1[C@H]2CC[C@]3(C)[C@@H](OC(C)=O)CC[C@H]3[C@@H]2CC[C@H]1C1(C)SCCS1` the compound record lists TGI as > 25 µM

// TGI lookup, compound = `COc1ccc(/C=C2\N=C3Sc4c(nc[nH]c4=O)N3C2=O)cc1` , result: > 100 µM

###

Tested on: NCI-H522 lung
measurement-protocol: NCI tumour cell line growth inhibition, 48 h; in the data active means GI50 below about 0.43 µM; inactive means the rest
Give your call using only these classes: 1 for active, -1 for inactive

Recorded test call requested for `CC(=O)c1cc2c(cc1Nc1c3ccccc3nc3occ(Cl)c13)OCO2`
1

For this molecule, state the assay outcome: `COc1cnc2c(c1)C(=O)c1c-2n(CCCN2CCC(O)CC2)c(=O)c2cc(F)ccc12`
1

Lab log entry: `O=C1c2ccccc2C(=Cc2ccccc2)c2ccccc21` — outcome as called in the assay?
-1

I would be grateful if you could indicate the recorded call for `O=c1cc(N2CCNCC2)oc2c(-c3ccccc3)cccc12` .
-1

Please share the test call associated with `COc1cc2nccc(Oc3ccc(NC(=O)C4(C(=O)Nc5ccc(F)cc5)CC4)cc3)c2cc1Oc1ccc(N)cn1` .
-1

Outcome? `COc1ccc2c(c1)C(=O)C(=O)c1cc(O)c(OC)c(OC)c1-2`
-1

// return assay outcome for `O=C(c1ccco1)c1nc2cc(F)ccc2[n+]([O-])c1C(F)(F)F`
-1

Record request — test call for `COc1ccc2nc3cc(Cl)ccc3c(N3CCN(c4ccnc(N5CCOCC5)n4)CC3)c2c1`
-1

Query: recorded result category for `COC(=O)[C@]12CC[C@@H](C)[C@H](C)[C@@H]1C1=CC[C@@H]3[C@@]4(C)C(C=O)=C[C@@](C)(COC(=O)c5ccco5)[C@@H]4C(=O)C[C@@]3(C)[C@]1(C)CC2` in this test
-1

So what was the verdict on `COC(=O)c1ccc(NC(=O)Nc2ccc3oc(=O)c4ccccc4c3c2)cc1` in this test?
-1

###

Tested on: UO-31 renal
measurement-protocol: NCI tumour cell line growth inhibition, 48 h
Provide the reported TGI of each item.

response.value for O1C2C1C1OC1C1OC1C1OC21 (stereo not given) (field: TGI) = > 100 µM

Recorded TGI (compound CCOC(=O)CC1(O)CCCCC1(Sc1ccc(C)cc1)Sc1ccc(C)cc1 (stereo not given) ): > 100 µM

Value of measured TGI for the entry `COc1ccc2c(c1)[n+]([O-])c(-c1ccccc1)c(N)[n+]2[O-]` : > 100 µM

The compound identified as `Cc1cc(=O)[nH]o1` registered its TGI at > 100 µM

TGI measured on `O=C1Nc2ccccc2S/C1=C\c1cccc(C(F)(F)F)c1` = > 100 µM

###

System: TK-10 renal
measurement-protocol: NCI tumour cell line growth inhibition, 48 h
Can you tell me TGI for the items I'm about to list?

Lab note: measured TGI of `N/C(=N\N=C\c1c[nH]c2cc(C(F)(F)F)ccc2c1=O)NO` was > 10 µM

Per the records, this compound ( OCC1OC(OCC(O)C(O)C(O)C(/C=N/Nc2ccccc2)=N/Nc2ccccc2)C(O)C(O)C1O (stereo not given) ) has TGI equal to > 100 µM

Looking up `CC(=O)c1cc2c(cc1Nc1c3ccccc3nc3occ(Cl)c13)OCO2` , I found its TGI recorded as > 100 µM

Kindly note the recorded TGI for C=CC(C)(O)/C=C/C=C(\C)C(CC1OC1(C)C)OC(=O)/C(C)=C\C (stereo not given) , which is > 100 µM

Form field TGI, entry C=C1CC[C@@H](Br)C(C)(C)[C@]12CCC(C)(O)C(Cl)C2 (stereo not given in full) : 78.4 µM

###

Test system: M14 melanoma
measurement-protocol: NCI tumour cell line growth inhibition, 48 h
Where a SMILES comes first, the peptide text is derived from it. The star is where a group is joined. Pentanoyl = CCCCC(=O)*; Boc = CC(C)(C)OC(=O)*
measured-endpoint: TGI

Sample `Cc1c(-c2nnc(-c3ccc(Cl)cc3)o2)c(=O)n(-c2ccccc2)n1C` ; TGI observed: > 100 µM

TGI reported for this compound COc1ccc2c3c(n(Cc4ccccc4)c(=O)c2c1)-c1cc(OC)c(OC)cc1C3C (centres undefined) : > 100 µM

Field TGI (entry `O=[N+]([O-])c1ccc2c(c1)Nc1c3ccccc3nc3cccc-2c13` ) reads 16.9 µM

Measured TGI of `C=CCn1c(C23CC4CC(CC(C4)C2)C3)n[nH]c1=S` : > 100 µM

// TGI value for CC(=O)c1cccc(NC(=O)C(=O)C(C2OC(=O)c3ccccc32)[N+](=O)[O-])c1 (centres undefined) : > 100 µM

Just so you know, measured TGI for `O=P1(c2ccccc2)c2ccccc2CCc2ccccc21` came out at > 100 µM

Looking up `Cn1c(O)c(C(/C=C/c2ccccc2)=NCCN=C(/C=C/c2ccccc2)c2c(O)n(C)c(=O)n(C)c2=O)c(=O)n(C)c1=O` , I see its TGI listed as > 50 µM

Looking up `CN(C)c1ccc(/C=C2\N=C(c3ccc([N+](=O)[O-])cc3)OC2=O)cc1` , I see its TGI listed as > 100 µM

The recorded TGI for entry `Cc1cnc(-c2c[nH]c3ccccc23)nc1-c1c[nH]c2ccccc12` equals 16.4 µM

Lab note: `CC(C)(C)c1[nH]cnc1/C=c1\[nH]c(=O)/c(=C/c2ccccc2)[nH]c1=O` gave TGI of 17.1 µM

Per the records, this compound ( CC(Oc1ccc(OCC2CCCCC2)cc1)C(N)=O (centres undefined) ) has TGI equal to > 100 µM

For reference, reported TGI for COC(=O)C1C(OC(=O)C(Cl)(c2ccccc2)c2ccccc2)CC2CCC1N2C (centres undefined) stands at > 100 µM

Quick note, TGI for CCCCC(=O)Oc1ccc(CC(NC(=O)OC(C)(C)C)C(=O)NC(C)C(=O)NC(Cc2ccccc2)C(=O)NCC(N)=O)cc1 (centres undefined) (Boc-Y(Pentanoyl)AFG-NH2; configuration not given here) landed at > 100 µM

So for C=CC(C)(O)/C=C/C=C(\C)C(CC1OC1(C)C)OC(=O)/C(C)=C\C (centres undefined) , the logged TGI turned out to be > 100 µM

###

System: HCC-2998 colon
measurement-protocol: NCI tumour cell line growth inhibition, 48 h
measured-endpoint: TGI

response.value for O=C(CCl)NC(Cc1ccc(F)cc1)C(=O)O (configuration not stated) (field: TGI) = > 100 µM

# TGI (compound: `COc1ccc(/C=C2\N=C3Sc4c(nc[nH]c4=O)N3C2=O)cc1` ) is > 100 µM

// field: TGI; key: O1C2C1C1OC1C1OC1C1OC21 (configuration not stated) ; value = > 100 µM

The compound identified as O=c1c2ccccc2n2n1CC(O)C2 (configuration not stated) registered its TGI at > 100 µM

TGI in this record for `CC1(C)CC(=O)C2=C(C1)S/C(=C1/SC3=C(S1)C(=O)CC(C)(C)C3)S2` : > 251 µM

Entry `C=CCn1c(C23CC4CC(CC(C4)C2)C3)n[nH]c1=S` — recorded TGI = > 100 µM

For `CC(C)(C)CC(C)(C)c1cc2c(O)c(c1)Cc1cc(C(C)(C)CC(C)(C)C)cc(c1O)Cc1cc(C(C)(C)CC(C)(C)C)cc(c1O)Cc1cc(C(C)(C)CC(C)(C)C)cc(c1O)Cc1cc(C(C)(C)CC(C)(C)C)cc(c1O)Cc1cc(C(C)(C)CC(C)(C)C)cc(c1O)C2` the compound record lists TGI as > 100 µM

Input CCOC(=O)C1=C(C)NC2SC(=O)/C(=C\c3ccccc3O)N2C1c1ccccc1 (configuration not stated) . Output TGI: 64.8 µM

Entry `Nc1c(-c2nc3ccccc3o2)sc(=S)n1-c1ccc(Cl)cc1` , TGI reported as > 100 µM

// sample `CCOC(=O)C(C)(C(=O)OCC)/C(Cl)=C\Cl` , its TGI was 0.988 µM

Measured TGI, `Cc1ccc(S(=O)(=O)N/N=c2\c(C)c(C3=NS(=O)(=O)c4cc(S(N)(=O)=O)c(Cl)cc4N3)oc3c(Cl)cc(Cl)cc23)cc1` : > 100 µM

Documented TGI of CCCCCCCCCCCCCCCC(=O)OCC1CCCN2CCCCC12 (configuration not stated) : > 100 µM

###

Tested on: SW-620 colon
measurement-protocol: NCI tumour cell line growth inhibition, 48 h
measured-endpoint: GI50

Reported GI50 of `O=C(Nc1ccc(Oc2ccc3nc(NC(=O)c4ccccc4)[nH]c3c2)cc1)Nc1cc(C(F)(F)F)ccc1F` : 1.27 µM

The compound `C/C(=C\C1=C(Cl)C(=O)c2ccccc2C1=O)C(=O)O` showed GI50 equal to 21.7 µM

What the record says about `Cn1cc(C2=C(c3cccnc3)C(=O)NC2=O)c2ccccc21` : GI50 is > 25 µM
